Numbers sourced from ChEMBL document CHEMBL2040727.

Collected inhibition of growth at 10 µM values appear next to each entry.
# Test system: Malme-3M
# Test method notes: Growth inhibition of human MALME-3M cells at 10 uM after 48 hrs by coulter counter analysis
# Type: functional
# Measurement setup: read-out: GI

Here's what some known entries look like.
Cc1cnc(NC(=O)CN2CCN(c3ccccc3)CC2)s1 : < 10%
CCOC(=O)c1sc(NC(=O)C(C)N2CCCCC2)nc1C (stereo not given) : < 10%
CC(C(=O)Nc1nccs1)N1CCN(C)CC1 (stereo not given) : < 10%
Cc1csc(NC(=O)C(C)N2CCN(C)CC2)n1 (stereo not given) : 17.6%
CCOC(=O)c1sc(NC(=O)CCN2CCOCC2)nc1C : < 10%

Query: Consider the compound O=C(CCCl)Nc1nc(-c2ccccc2)cs1 and give its measured inhibition of growth at 10 µM.
Response: 68.2%

Query: Consider the compound Cc1cnc(NC(=O)CN2CCN(C)CC2)s1 and give its measured inhibition of growth at 10 µM.
Response: < 10%

Query: Consider the compound O=C(CN1CCN(c2ccccc2)CC1)Nc1nc(-c2ccccc2)cs1 and give its measured inhibition of growth at 10 µM.
Response: 23.4%

Query: Consider the compound CCOC(=O)c1sc(NC(=O)CN(C)C)nc1C and give its measured inhibition of growth at 10 µM.
Response: < 10%

Query: Consider the compound O=C(CCN1CCN(c2ccccc2)CC1)Nc1nc(-c2ccccc2)cs1 and give its measured inhibition of growth at 10 µM.
Response: < 10%

---

# Test system: HCT-15
# Test method notes: Growth inhibition of human HCT15 cells at 10 uM after 48 hrs by coulter counter analysis
# Format: functional
# Measurement setup: HCT-15, 48 h, read-out: GI
Assay readout: inhibition of growth at 10 µM

Here's what some known entries look like.
O=C(CN1CCN(c2ccccc2)CC1)Nc1nc(-c2ccccc2)cs1 : 54.6%
CCOC(=O)c1sc(NC(=O)CCN2CCOCC2)nc1C : < 10%
Cc1cnc(NC(=O)CCN2CCN(c3ccccc3)CC2)s1 : < 10%
CC(C(=O)Nc1nccs1)N1CCN(c2ccccc2)CC1 (stereo unspecified) : < 10%
Cc1cnc(NC(=O)CN2CCN(C)CC2)s1 : < 10%

Query: Consider the compound Cc1csc(NC(=O)C(C)N2CCN(c3ccccc3)CC2)n1 (stereo unspecified) and give its measured inhibition of growth at 10 µM.
Response: < 10%
